Molecular target: UniProt P0DTD1
Experiment: cell-based
pEC50: −log10 of the molar value.
recorded-metric: pEC50

>>> endpoint_result("O=C(N[C@@H](Cc1c[nH]c2ccccc12)C(=O)N[C@@H](C[C@@H]1CCNC1=O)C(=O)COc1c(F)c(F)c(CO)c(F)c1F)c1cc2ccccc2[nH]1")
5.54
>>> endpoint_result("COc1cccc2[nH]c(C(=O)N[C@H](Cc3cccc(F)c3)C(=O)N[C@@H](C[C@@H]3CCNC3=O)C(=O)COc3c(F)c(F)c(CO)c(F)c3F)cc12")
4.73
>>> endpoint_result("COc1cccc2[nH]c(C(=O)N[C@@H](Cc3cccc(F)c3)C(=O)N[C@@H](C[C@@H]3CCNC3=O)C(=O)COc3c(F)c(F)c(C(C)(C)O)c(F)c3F)cc12")
8.33
>>> endpoint_result("COc1cccc2[nH]c(C(=O)N[C@@H](Cc3cccc(F)c3)C(=O)N[C@@H](C[C@@H]3CCNC3=O)C(=O)COc3c(F)c(F)c(CO)c(F)c3F)cc12")
6.98

----------
Biological target: SARS-CoV-2 main protease (Mpro) (Severe acute respiratory syndrome coronavirus 2)
Assay: cell-based
recorded-metric: EC50

>>> endpoint_result("COc1cccc2[nH]c(C(=O)N[C@@H](Cc3cccc(F)c3)C(=O)N[C@@H](C[C@@H]3CCNC3=O)C(=O)COc3c(F)c(F)c(F)c(F)c3F)cc12 [compound 16, reference compound]")
"< 3.02 nM"
>>> endpoint_result("COc1cccc2[nH]c(C(=O)N[C@@H](Cc3cccc(F)c3)C(=O)N[C@@H](C[C@@H]3CC(=O)NC3=O)C(=O)COc3c(F)c(F)c(C(C)(C)O)c(F)c3F)cc12 [compound 11]")
"1230 nM"
>>> endpoint_result("COc1cccc2[nH]c(C(=O)N[C@@H](Cc3cccc(F)c3)C(=O)N[C@@H](C[C@@H]3CCNC3=O)C(=O)COc3c(F)c(F)c(C(C)O)c(F)c3F)cc12 (stereo partly drawn) [compound 8]")
"8.71 nM"

Where do these numbers come from? They come from paper PMC12169608.
